assay: chemical genetic growth profiling, strain panel (AID 1159580);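 also: tested at 20 µM; growth read once vehicle control cultures reached saturation at 30 °C; 1 = growth at the plate median or of vehicle wells; lower values mean less growth of the strain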; conditions: S. cerevisiae deletion strains, growth OD, locus YCL069W, strain vba3
In all, about 5,500 compounds went through this assay and about 2,000 (36%) were called active. Not shown: some 18% with an inconclusive outcome. Rule as the data show it: active = normalized growth mostly below about 0.91 (no sharp cut-off); inconclusive = no clear call, values can overlap the other calls; inactive = mostly above about 0.92. This is one part of the list.
Classes to choose from: active, inactive

Query block: For this compound, state the assay outcome: `O=C1C=CC2=C3c4cc(O)c(O)cc4C[C@@]3(O)COC2=C1`
Result block: inactive

Query block: For this compound, state the assay outcome: C=CC(C1=CC(=O)C(OC)=CC1=O)c1ccc(OC)cc1 (configuration not stated)
Result block: active

---

# normalized growth values compiled below
test: chemical genetic growth profiling, strain panel (AID 1159580);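 also: tested at 20 µM; growth read once vehicle control cultures reached saturation at 30 °C; 1 = growth at the plate median or of vehicle wells; lower values mean less growth of the strain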; conditions: S. cerevisiae deletion strains, growth OD, locus YGR040W, strain KSS1, active compounds read low
The campaign covered roughly 5,500 compounds. About 2,000 (36%) were called active. Not shown: some 18% with an inconclusive outcome. The list shows a part of the results.
Write the value as a bare number.

Here's what some known entries look like.
1. O=C1CSC(c2cccnc2)N1c1ccc(Cl)cc1Cl (stereo unspecified)	0.93
2. Cc1cc(Cl)ccc1NC(=S)NNC(=S)Nc1ccc(F)cc1	0.912
3. CCOC(=O)/C(=N/Nc1c(Cl)cccc1Cl)c1csc(N)n1	0.884

`Cn1c(CSCCOc2ccccc2)nnc1SCc1ccc(Cl)cc1Cl` has a reported normalized growth of 1.01
